Target: KDR (phospho-KDR, VEGF165-stimulated HUVEC cells) (Homo sapiens (Human), UniProt P35968)
Sequence (P35968 20-1356): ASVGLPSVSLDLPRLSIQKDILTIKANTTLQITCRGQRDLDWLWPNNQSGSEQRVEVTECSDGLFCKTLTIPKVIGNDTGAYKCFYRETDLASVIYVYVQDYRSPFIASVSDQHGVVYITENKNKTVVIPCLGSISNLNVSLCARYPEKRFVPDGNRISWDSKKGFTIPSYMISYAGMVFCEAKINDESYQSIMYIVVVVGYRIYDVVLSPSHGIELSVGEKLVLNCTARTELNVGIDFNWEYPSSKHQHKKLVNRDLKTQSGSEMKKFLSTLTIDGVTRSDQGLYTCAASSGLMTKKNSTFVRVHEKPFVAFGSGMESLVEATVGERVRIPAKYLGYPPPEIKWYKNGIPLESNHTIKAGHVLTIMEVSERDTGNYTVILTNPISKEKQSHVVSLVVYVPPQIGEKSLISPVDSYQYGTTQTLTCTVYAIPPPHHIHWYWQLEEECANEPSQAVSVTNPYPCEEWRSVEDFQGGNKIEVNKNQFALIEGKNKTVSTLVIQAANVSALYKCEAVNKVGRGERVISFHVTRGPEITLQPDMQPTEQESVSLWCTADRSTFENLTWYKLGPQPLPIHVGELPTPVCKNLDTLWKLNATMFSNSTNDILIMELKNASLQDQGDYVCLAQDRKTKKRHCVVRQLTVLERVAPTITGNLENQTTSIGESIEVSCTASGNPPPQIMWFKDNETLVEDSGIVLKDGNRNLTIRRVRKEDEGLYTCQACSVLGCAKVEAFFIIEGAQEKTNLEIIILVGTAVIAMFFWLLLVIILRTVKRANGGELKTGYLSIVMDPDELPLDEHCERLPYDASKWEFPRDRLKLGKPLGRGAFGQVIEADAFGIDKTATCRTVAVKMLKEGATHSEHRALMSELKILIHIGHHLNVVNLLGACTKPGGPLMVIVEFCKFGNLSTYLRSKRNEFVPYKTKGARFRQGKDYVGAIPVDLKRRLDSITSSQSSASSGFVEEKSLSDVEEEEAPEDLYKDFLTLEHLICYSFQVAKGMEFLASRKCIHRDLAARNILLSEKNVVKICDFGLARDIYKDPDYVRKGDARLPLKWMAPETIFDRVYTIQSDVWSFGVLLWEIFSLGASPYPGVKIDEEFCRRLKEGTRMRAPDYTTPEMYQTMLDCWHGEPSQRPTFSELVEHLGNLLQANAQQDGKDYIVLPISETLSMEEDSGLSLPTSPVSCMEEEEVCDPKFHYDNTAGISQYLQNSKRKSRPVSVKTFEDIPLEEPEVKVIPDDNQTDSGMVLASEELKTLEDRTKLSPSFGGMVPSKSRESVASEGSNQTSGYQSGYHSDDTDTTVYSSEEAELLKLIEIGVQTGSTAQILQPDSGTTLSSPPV
Test: KDR autophosphorylation ELISA in HUVEC cells (Example G)
Format: cell-based
Settings: cellular activity; KDR autophosphorylation ELISA in HUVEC cells
pIC50: −log10 of the molar value.
ENDPOINT: pIC50

SMILES_RECORD | pIC50
COc1cc2ncnc(Oc3ccc(NC(=O)c4c5n(cc(-c6ccc(F)cc6)c4=O)CCC5)cc3F)c2cc1OC | > 7.00
COc1cc2nccc(Oc3ccc(NC(=O)c4c(C)c(Cl)c(C)n(-c5ccc(F)cc5)c4=O)cc3F)c2nc1OC | > 7.00
COc1cc2nccc(Oc3ccc(NC(=O)c4cn(C)cc(-c5c(C)cc(F)cc5C)c4=O)cc3F)c2nc1OC | < 6.52

Count: 4. Required value per item: pIC50.
1. Cc1cc(C)n(-c2ccc(F)cc2)c(=O)c1C(=O)Nc1ccc(Oc2ccnc3cccnc23)c(F)c1
2. COc1cc2nccc(Oc3ccc(NC(=O)c4cc(C)nn(-c5ccc(F)cc5)c4=O)cc3F)c2nc1OC
3. CCc1nc(C)c(-c2ccc(F)cc2)c(O)c1C(=O)Nc1ccc(Oc2ccnc3cc(OC)cnc23)c(F)c1
4. COc1cc2nccc(Oc3ccc(NC(=O)c4c(C)c(C(N)=O)c(C)n(-c5ccc(F)cc5)c4=O)cc3)c2nc1OC

> 7.00
> 7.00
> 7.00
< 6.52

FYI, the data here is from patent US12371428B2.
